biological target: P2X purinoceptor 4 (Homo sapiens) (UniProt Q99571); test: Activity at P2X4 receptor up to 10 uM
Sequence (Q99571 whole entry): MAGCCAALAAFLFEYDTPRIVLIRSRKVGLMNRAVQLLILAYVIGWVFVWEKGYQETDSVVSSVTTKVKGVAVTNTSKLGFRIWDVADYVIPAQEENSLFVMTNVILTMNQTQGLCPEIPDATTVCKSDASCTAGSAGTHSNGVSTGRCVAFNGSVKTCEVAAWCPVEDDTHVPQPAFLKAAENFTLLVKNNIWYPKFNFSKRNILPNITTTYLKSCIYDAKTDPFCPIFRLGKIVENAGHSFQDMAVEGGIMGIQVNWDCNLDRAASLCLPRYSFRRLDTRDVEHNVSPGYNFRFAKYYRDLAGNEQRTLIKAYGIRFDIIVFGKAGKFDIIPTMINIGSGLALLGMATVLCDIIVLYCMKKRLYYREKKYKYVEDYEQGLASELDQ
Calls of active or inactive are those of the source. The calls are words filed in the database; no cut-off is given here.

[
  {
    "molecule": "COc1ccc(CC(=O)NC(N/C(=N/C#N)Nc2cc(C)ccc2C)C(C)(C)C)cc1OC (centres undefined)",
    "experimental-system": "P2X purinoceptor 4 (Homo sapiens) (UniProt Q99571)",
    "Activity": "inactive"
  },
  {
    "molecule": "COc1ccc(CC(=O)NC(N/C(=N/C#N)Nc2ccccc2C)C(C)(C)C)cc1OC (stereo in doubt; 13)",
    "experimental-system": "P2X purinoceptor 4 (Homo sapiens) (UniProt Q99571)",
    "Activity": "inactive"
  },
  {
    "molecule": "Cc1ncccc1N/C(=N\\C#N)NC(NC(=O)Cc1ccc(Cl)cc1)C(C)(C)C (centres undefined)",
    "experimental-system": "P2X purinoceptor 4 (Homo sapiens) (UniProt Q99571)",
    "Activity": "inactive"
  },
  {
    "molecule": "COc1ccc(CC(=O)NC(N/C(=N/C#N)Nc2cccc3ncccc23)C(C)(C)C)cc1OC (centres undefined)",
    "experimental-system": "P2X purinoceptor 4 (Homo sapiens) (UniProt Q99571)",
    "Activity": "inactive"
  }
]
